These measurements were taken from ChEMBL document CHEMBL4651341.

- Tested on: Schistosoma mansoni
- testSummary: Concentration required to kill 50% of 42 day old worms 5 days after drug treatment.
- Type: functional, organism-based
- conditionDetails: Puerto Rican, 120 h
pEC50: −log10 of the molar value.
We begin with a simple list: items and their reported pEC50.
recordedMetric: pEC50

>>> observedmeasurement("COc1ccc(-c2cnc3cnc(-c4cccc(OC(C)C)c4)cn23)c(OC)c1")
4.90
>>> observedmeasurement("COc1ccc(-c2c(C(F)(F)F)nc3cnc(-c4cccc(C(F)(F)C(F)(F)F)c4)cn23)cc1O")
7.68
>>> observedmeasurement("CC(C)c1cc(-c2cn3c(-c4ccc5[nH]ncc5c4F)c(C4CCC4)nc3cn2)ccc1F")
8.14
>>> observedmeasurement("CC(C)c1nc2cnc(-c3ccc(F)c(C(F)(F)F)c3)cn2c1-c1ccc2[nH]cnc2c1F")
6.04
>>> observedmeasurement("CC(C)c1cc(-c2cn3c(-c4ccc5[nH]ncc5c4F)c(C(C)C)nc3cn2)ccc1F")
8.40
>>> observedmeasurement("COc1ccc(-c2c(C3CC3)nc3cnc(-c4cccc(C(F)(F)F)c4)cn23)cc1O")
7.15
>>> observedmeasurement("CC(C)c1nc2cnc(-c3cccc(C(F)(F)F)c3)cn2c1-c1ccc2[nH]ncc2c1F")
7.51
>>> observedmeasurement("CCc1nn2cnc(-c3ccc(F)c(C(F)(F)F)c3)cc2c1-c1c(F)cc(O)cc1F")
7.96
>>> observedmeasurement("COc1ccc(-c2cnc3cnc(-c4cccc(Cl)c4)cn23)cc1")
4.91
>>> observedmeasurement("Fc1c(-c2c(C3CC3)nc3cnc(-c4cccc(S(F)(F)(F)(F)F)c4)cn23)ccc2[nH]ncc12")
7.68

* * *

- testSummary: Mean time to peak plasma concentration in Swiss albino male mice at […] per compound (administered orally in a mixture of 5 compounds to 3 mice) assessed by LCMS/MS.
- Format: ADME, organism-based
- conditionDetails: mouse, po
We begin with a simple list: items and their reported Tmax.
recordedMetric: Tmax (min)

>>> observedmeasurement("CCc1nc2cnc(-c3cccc(C(F)(F)F)c3)cn2c1-c1ccc(O)cc1F")
15
>>> observedmeasurement("COc1ccc(-c2c(C)nc3ccc(-c4cccc(C(F)(F)F)c4)cn23)cc1O")
15
>>> observedmeasurement("CC(C)c1cc(-c2cn3c(-c4ccc5[nH]ncc5c4F)c(C4CC4)nc3cn2)ccc1F")
79.8
>>> observedmeasurement("Oc1ccc(-c2c(C(F)(F)F)nc3cnc(-c4cccc(C(F)(F)F)c4)cn23)c(F)c1")
15
>>> observedmeasurement("CC(C)c1nc2cnc(-c3ccc(F)c(C(F)(F)F)c3)cn2c1-c1c(F)cc(OP(=O)(O)O)cc1F")
15

* * *

- testSummary: Mean half-life in Swiss albino male mice at 1 mg/kg per compound (administered iv in a mixture of 5 compounds to 3 mice) assessed by LCMS/MS.
- Type: ADME, organism-based
- conditionDetails: mouse, in vivo
recordedMetric: log10(half-life) (log10 of the value in min)

>>> observedmeasurement("Cc1nc2cnc(-c3ccc(F)c(C(F)(F)F)c3)cn2c1-c1ccc(O)cc1F")
2.14
>>> observedmeasurement("CC(C)c1nc2cnc(-c3cccc(S(F)(F)(F)(F)F)c3)cn2c1-c1c(F)cc(O)cc1F")
2.03
>>> observedmeasurement("Oc1cc(F)c(-c2c(C3CCC3)nc3cnc(-c4ccc(F)c(C(F)(F)F)c4)cn23)c(F)c1")
2.74
>>> observedmeasurement("CC(C)c1nn2cnc(-c3cccc(C(F)(F)F)c3)cc2c1-c1c(F)cc(O)cc1F")
1.98
>>> observedmeasurement("CC(C)c1nc2cnc(-c3ccc(F)c(C(F)(F)F)c3)cn2c1-c1ccc2[nH]ncc2c1")
2.68
>>> observedmeasurement("Fc1ccc(-c2cn3c(-c4ccc5[nH]ncc5c4F)c(C(F)(F)F)nc3cn2)cc1C1CCC1")
2.12
>>> observedmeasurement("Fc1ccc(-c2cn3c(-c4ccc5[nH]ncc5c4F)c(C4CC4)nc3cn2)cc1C(F)(F)F")
2.99
>>> observedmeasurement("CCc1nc2cnc(-c3ccc(F)c(C(F)(F)F)c3)cn2c1-c1c(F)cc(O)cc1F")
2.78
>>> observedmeasurement("COc1ccc(-c2c(C(F)(F)F)nc3cnc(-c4cccc(C(F)(F)C(F)(F)F)c4)cn23)cc1O")
2.10
